Measured pIC50 accompanies every entry in the list below.
Test system: Plasmodium berghei
METHOD DESCRIPTION: Antimalarial activity against exo-erythrocytic form of Plasmodium berghei infected in human HepG2 cells after 48 hrs
Format: functional, organism-based
MEASUREMENT PARAMETERS: HepG2, 48 h
In simple prose, pIC50 is minus the logarithm base ten of a concentration in moles per litre.

In the examples that follow, each entry is paired with its recorded pIC50.
{"SMILES DATA": "CCCCCCOc1ccc(C(=O)NOCCCCCC(=O)NO)cc1", "pIC50": 5.10}
{"SMILES DATA": "Cc1cc(C)cc(C(=O)NOCCCCCC(=O)NO)c1", "pIC50": 6.80}
{"SMILES DATA": "O=C(CCCCCONC(=O)c1ccc(-c2ccccc2)cc1)NO", "pIC50": 5.74}
{"SMILES DATA": "CCCOc1ccccc1C(=O)NOCCCCCC(=O)NO", "pIC50": 6.32}
{"SMILES DATA": "CCOc1ccc(C(=O)NOCCCCCC(=O)NO)cc1", "pIC50": 5.86}
{"SMILES DATA": "CCCOc1cccc(C(=O)NOCCCCCC(=O)NO)c1", "pIC50": 6.35}
{"SMILES DATA": "O=C(CCCCCONC(=O)c1ccco1)NO", "pIC50": 5.95}
{"SMILES DATA": "Cc1ccc(C(=O)NOCCCCCC(=O)NO)cc1C", "pIC50": 6.51}

Q) Give Plasmodium berghei pIC50 for CC(C)(C)c1ccc(C(=O)NOCCCCCC(=O)NO)cc1
A) 5.73

Q) Give Plasmodium berghei pIC50 for CCCCCOc1ccc(C(=O)NOCCCCCC(=O)NO)cc1
A) 5.29

Q) Give Plasmodium berghei pIC50 for Cc1ccccc1C(=O)NOCCCCCC(=O)NO
A) 5.60

* * *

Measured inhibition accompanies every entry in the list below.
System: Plasmodium falciparum
METHOD DESCRIPTION: Inhibition of histone deacetylase in Plasmodium falciparum nuclear lysates at 1 uM by fluorescence assay
Report the value in % with no unit label.

Q) Give Plasmodium falciparum inhibition for CC(C)c1ccc(C(=O)NOCCCCCC(=O)NO)cc1
A) 72.9

Q) Give Plasmodium falciparum inhibition for CCCCOc1ccc(C(=O)NOCCCCCC(=O)NO)cc1
A) 50.3

Q) Give Plasmodium falciparum inhibition for Cc1cccc(C(=O)NOCCCCCC(=O)NO)c1
A) 73.9

Q) Give Plasmodium falciparum inhibition for CC(C)(C)c1ccc(C(=O)NOCCCCCC(=O)NO)cc1
A) 48.3

Q) Give Plasmodium falciparum inhibition for Cc1cc(C)cc(C(=O)NOCCCCCC(=O)NO)c1
A) 58.6

Q) Give Plasmodium falciparum inhibition for Cc1ccc(C(=O)NOCCCCCC(=O)NO)cc1C
A) 93.3

Q) Give Plasmodium falciparum inhibition for CC(C)Oc1ccc(C(=O)NOCCCCCC(=O)NO)cc1
A) 9.3

* * *

METHOD DESCRIPTION: Selectivity index, ratio of IC50 for human HepG2 cells to IC50 for asexual blood stage of Plasmodium falciparum 3D7
Measured selectivity ratio accompanies every entry in the list below.
// no unit, no text: just the number

{"SMILES DATA": "O=C(CCCCCONC(=O)c1ccc(F)cc1)NO", "selectivity ratio": 18}

Q) Which measured selectivity ratio value corresponds to Cc1ccc(C(=O)NOCCCCCC(=O)NO)cc1C ?
A) 27

Q) Which measured selectivity ratio value corresponds to Cc1cccc(C(=O)NOCCCCCC(=O)NO)c1 ?
A) 25

Q) Which measured selectivity ratio value corresponds to CCCOc1cccc(C(=O)NOCCCCCC(=O)NO)c1 ?
A) 29

Q) Which measured selectivity ratio value corresponds to CC(C)c1ccc(C(=O)NOCCCCCC(=O)NO)cc1 ?
A) 73

Q) Which measured selectivity ratio value corresponds to CCOc1ccc(C(=O)NOCCCCCC(=O)NO)cc1 ?
A) 33

Q) Which measured selectivity ratio value corresponds to CCCOc1ccc(C(=O)NOCCCCCC(=O)NO)cc1 ?
A) 80

Q) Which measured selectivity ratio value corresponds to Cc1ccccc1C(=O)NOCCCCCC(=O)NO ?
A) 11

Q) Which measured selectivity ratio value corresponds to CC(C)(C)c1ccc(C(=O)NOCCCCCC(=O)NO)cc1 ?
A) 139

Q) Which measured selectivity ratio value corresponds to O=C(CCCCCONC(=O)c1ccccc1F)NO ?
A) 12

Q) Which measured selectivity ratio value corresponds to O=C(CCCCCONC(=O)c1ccc(-c2ccccc2)cc1)NO ?
A) 64

Q) Which measured selectivity ratio value corresponds to Cc1cc(C)cc(C(=O)NOCCCCCC(=O)NO)c1 ?
A) 13
